Listed below: Protection values for each entry.
# Tested on: Cavia porcellus
# ASSAY_OVERVIEW: Compound (50 mg/kg, intraperitoneally) was tested in spontaneously breathing, conscious guinea pigs challenged with aerosolized LTD4 (30-min pretreatment)
# Type: functional
Provide the reading as a plain figure in %.

Would you please look over these solved cases?
[[record]]
molecule = "CCCc1c(OCC(O)COc2ccc3c(=O)cc(C(=O)O)oc3c2CCC)ccc(C(C)=O)c1O (centres undefined)"
target_or_system = "Cavia porcellus"
endpoint_name = "Protection"
reported_result = 32

[[record]]
molecule = "CCCc1c(OCc2cccc(/C=C/C(=O)O)c2)ccc(C(C)=O)c1O"
target_or_system = "Cavia porcellus"
endpoint_name = "Protection"
reported_result = 19

[[record]]
molecule = "CCCc1c(OCc2ccc(C(=O)O)cc2OC)ccc2c(C)cc(=O)oc12"
target_or_system = "Cavia porcellus"
endpoint_name = "Protection"
reported_result = 27


Next up:
Recorded Protection of "CCCc1c(OCc2ccc(C(=O)O)cc2F)ccc(C(C)=O)c1O" , please.
18

---

Listed below: Kb values for each entry.
# TARGET_OR_SYSTEM: Cysteinyl leukotriene receptor 1 (Cavia porcellus) (UniProt Q2NNR5)
# Sequence (Q2NNR5 whole entry): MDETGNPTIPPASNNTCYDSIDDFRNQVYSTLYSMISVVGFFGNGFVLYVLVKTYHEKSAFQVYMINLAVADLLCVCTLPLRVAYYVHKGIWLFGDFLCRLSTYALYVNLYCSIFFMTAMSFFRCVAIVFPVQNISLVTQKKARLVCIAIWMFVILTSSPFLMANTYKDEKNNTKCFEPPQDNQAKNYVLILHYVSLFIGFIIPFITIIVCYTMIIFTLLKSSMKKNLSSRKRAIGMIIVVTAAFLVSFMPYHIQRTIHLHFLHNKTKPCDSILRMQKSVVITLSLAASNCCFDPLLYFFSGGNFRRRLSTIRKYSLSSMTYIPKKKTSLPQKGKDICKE
# ASSAY_OVERVIEW: Dissociation constant (KB) […] was evaluated in vitro in isolated guinea pig tracheal strips
The answer should read as a number with its unit following.

Would you please look over these solved cases?
[[record]]
smiles_representation = "CCCc1c(OCc2ccc(C(=O)O)cc2F)ccc(C(C)=O)c1O"
endpoint_name = "Kb"
reported_result = "520 nM"

[[record]]
smiles_representation = "CCCc1c(OCc2ccc(C(=O)O)cc2OC)ccc(C(=O)OC)c1O"
endpoint_name = "Kb"
reported_result = "3180 nM"

[[record]]
smiles_representation = "C=C(C)Cc1c(OCc2ccc(C(=O)O)cc2OC)ccc(C(C)=O)c1O"
endpoint_name = "Kb"
reported_result = "1640 nM"

[[record]]
smiles_representation = "CCCc1c(OCc2ccc(/C=C/C(=O)O)cc2)ccc(C(C)=O)c1O"
endpoint_name = "Kb"
reported_result = "570 nM"

[[record]]
smiles_representation = "CCCc1c(OCc2cccc(/C=C/C(=O)O)c2)ccc(C(C)=O)c1O"
endpoint_name = "Kb"
reported_result = "630 nM"


Provide the documented Kb with Cysteinyl leukotriene receptor 1 (Cavia porcellus) (UniProt Q2NNR5) as the system for "CCCc1c(OCc2cccc(NC(=O)c3ccccc3C(=O)O)c2)ccc(C(C)=O)c1O"
160 nM

Provide the documented Kb with Cysteinyl leukotriene receptor 1 (Cavia porcellus) (UniProt Q2NNR5) as the system for "CCCc1c(OCc2ccc(C(=O)O)c(Br)c2)ccc(C(C)=O)c1O"
170 nM

Provide the documented Kb with Cysteinyl leukotriene receptor 1 (Cavia porcellus) (UniProt Q2NNR5) as the system for "COc1cc(C(=O)O)ccc1COc1ccc(C(C)=O)c(O)c1C"
850 nM

---

Listed below: inhibition at 50 µM values for each entry.
# Species: Cavia porcellus
# ASSAY_OVERVIEW: Percent inhibition of the leukotriene D4 (LTD4)-induced contraction of guinea pig tracheal spirals at 50 uM concentration
# Format: functional
# SETTINGS: Trachea
Provide the reading as a plain figure in %.

Would you please look over these solved cases?
[[record]]
molecule = "CCCc1c(OCc2ccc(C(=O)O)cc2OC)ccc(C(=O)c2ccccc2)c1O"
reported_result = 20

[[record]]
molecule = "CCCc1c(OCC(O)CSCC(=O)O)ccc(C(C)=O)c1O (stereo unspecified)"
reported_result = 44

[[record]]
molecule = "CCCCCCNC(=O)c1ccc(OCc2ccc(C(=O)O)cc2OC)c(CCC)c1O"
reported_result = 27

[[record]]
molecule = "CCCc1c(OCc2ccc(C(=O)O)cc2OC)ccc(C(=O)N2CCCC2)c1O"
reported_result = 90

[[record]]
molecule = "CCCCCC(=O)c1ccc(OCc2ccc(C(=O)O)cc2OC)c(CCC)c1O"
reported_result = 20


Next up:
Recorded inhibition at 50 µM of "CCCc1ccccc1OCc1ccc(C(=O)O)cc1OC" , please.
81
